# TESTED_SYSTEM: Full length ERK3 (NanoLuc fusion) (Homo sapiens)
# Construct: Full length ERK3 was cloned into pFC32K (Promega, Madison, WI, USA); expressed in transfected cells; host or cells: HEK293T
# Sequence (Q16659 whole entry, the tested form may be a part): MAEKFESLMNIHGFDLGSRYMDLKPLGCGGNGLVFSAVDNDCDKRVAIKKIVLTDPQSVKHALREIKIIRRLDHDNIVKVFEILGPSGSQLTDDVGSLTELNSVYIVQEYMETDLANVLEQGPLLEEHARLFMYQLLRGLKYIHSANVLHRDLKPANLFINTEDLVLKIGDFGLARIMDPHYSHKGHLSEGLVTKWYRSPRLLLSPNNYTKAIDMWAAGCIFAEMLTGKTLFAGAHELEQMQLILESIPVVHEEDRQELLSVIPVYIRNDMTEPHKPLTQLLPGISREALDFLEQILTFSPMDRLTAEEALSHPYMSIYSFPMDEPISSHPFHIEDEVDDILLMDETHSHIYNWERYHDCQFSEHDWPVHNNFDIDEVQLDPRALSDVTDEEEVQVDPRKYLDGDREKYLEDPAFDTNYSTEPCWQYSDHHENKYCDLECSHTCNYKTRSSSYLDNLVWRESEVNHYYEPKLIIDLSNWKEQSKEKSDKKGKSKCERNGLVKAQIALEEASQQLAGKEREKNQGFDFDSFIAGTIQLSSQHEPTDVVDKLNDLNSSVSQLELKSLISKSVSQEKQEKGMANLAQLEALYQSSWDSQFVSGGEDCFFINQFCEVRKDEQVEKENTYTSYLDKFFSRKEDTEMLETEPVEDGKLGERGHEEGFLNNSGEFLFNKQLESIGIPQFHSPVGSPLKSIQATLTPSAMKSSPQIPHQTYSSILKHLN
# PROTOCOL_DETAILS: Cell-based NanoBRET assay (tracer displacement) in HEK293T cells
# CONDITION_DETAILS: HEK-293T, 2 h; Table S3; single dose 10 µM; ratio to DMSO control; HEK293T; read-out: Norm.BRET 10 µM
Mark yes (1) only when remaining activity at 10 µM stays strictly below 40%. Values equal to the cut-off are no (0).

Example cases with answers are listed next.
Cc1cnc(Nc2ccc(N3CCN(C)CC3)cc2)nc1Nc1cccc(S(=O)(=O)NC(C)(C)C)c1; yes (1)
CCn1cc(-c2ccnc3[nH]c(-c4cccc(CN(C)C)c4)cc23)c(-c2ccc(NC(=O)N(C)C)cc2)n1; yes (1)
CN(c1ncccc1CNc1nc(Nc2ccc3c(c2)CC(=O)N3)ncc1C(F)(F)F)S(C)(=O)=O; no (0)
COc1cc2ncnc(Nc3ccc(O)c(Br)c3)c2cc1OC; yes (1)
CC(C)CCN1c2nc(Nc3cc(F)c(O)c(F)c3)ncc2N(C)C(=O)C1C (stereo not drawn); no (0)

Strictly below 40%: is that where remaining activity at 10 µM of Cc1ncc(-c2ccnc(Nc3ccc(S(C)(=O)=O)cc3)n2)n1C(C)C sits?
no (0)

Strictly below 40%: is that where remaining activity at 10 µM of Cc1nc(N)sc1-c1ccnc(Nc2ccc(N3CCOCC3)cc2)n1 sits?
no (0)

Strictly below 40%: is that where remaining activity at 10 µM of COc1cc2ncnc(Nc3cccc(Cl)c3)c2cc1OC sits?
no (0)

Strictly below 40%: is that where remaining activity at 10 µM of CC(C)(C)c1cnc(CSc2cnc(NC(=O)C3CCNCC3)s2)o1 sits?
no (0)

Where do these numbers come from? They come from paper PMC7663056.
